Below, each entry is listed with its recorded CAC.
experimentDescription: Critical aggregation concentration (CAC) Nile red fluorescence assay
Assay type: physicochemical
conditionLabel: Nile red fluorescence (~10 nM NR in water), lipopeptoids 2.5 × 10^-2 to 1 wt.%, excitation 552 nm, peak around 610 nm, room temperature; inflection in emission intensity
Square brackets hold non-standard residues; d marks the D form. Peptide text beside a SMILES is read from it. * marks the point of attachment. N(1-naphthylmethyl)Gly = O=C(O)CNCc1cccc2ccccc12; N(4-MeBn)Gly = Cc1ccc(CNCC(=O)O)cc1; Palmitoyl = CCCCCCCCCCCCCCCC(=O)*; Nonanoyl = CCCCCCCCC(=O)*; AEEA = NCCOCCOCC(=O)O; NBuGly = CCCCNCC(=O)O; Nlys = NCCCCNCC(=O)O
Provide the reading as a plain figure in µM.

compound	CAC [µM]
CCCCCCCCCCCCCCCC(=O)NCCOCCOCC(=O)N(CC(=O)N(CC(=O)N(CC(=O)N(CCCC)CC(=O)N(CCCCN)CC(=O)N(CCCCN)CC(=O)N(CCCCN)CC(=O)N(CCCCN)CC(N)=O)Cc1cccc2ccccc12)Cc1ccc(C)cc1)Cc1cccc2ccccc12 [C15-EG2-4k] ({Palmitoyl-AEEA}-[N(1-naphthylmethyl)Gly][N(4-MeBn)Gly][N(1-naphthylmethyl)Gly][NBuGly][Nlys][Nlys][Nlys][Nlys]-NH2)	320

We now examine a further compound.
**Query** Dear colleague, I am looking for the recorded CAC of the following compound: CCCCCCCCC(=O)NCCOCCOCC(=O)N(CC(=O)N(CC(=O)N(CC(=O)N(CCCC)CC(=O)N(CCCCN)CC(=O)N(CCCCN)CC(=O)N(CCCCN)CC(=O)N(CCCCN)CC(N)=O)Cc1cccc2ccccc12)Cc1ccc(C)cc1)Cc1cccc2ccccc12 [C8-EG2-4k] ({Nonanoyl-AEEA}-[N(1-naphthylmethyl)Gly][N(4-MeBn)Gly][N(1-naphthylmethyl)Gly][NBuGly][Nlys][Nlys][Nlys][Nlys]-NH2)
**Result** 2500
